Every entry's value here was drawn from paper PMC10146949.

# ASSAY_EXPLANATION: Cytotoxicity, resazurin cell viability test
# Type: cell-based, human
# RUN_CONDITIONS: human, SH-SY5Y neuroblastoma cells
READOUT_TYPE: pIC50
// returns pIC50 (minus log10 of molar concentration), number only

COMPOUND: O=C(CCCN1CCC(O)(c2ccc(Cl)cc2)CC1)c1ccc(F)cc1 [Haloperidol, reference compound]
pIC50: 4.64
--
COMPOUND: COc1ccc(C(O)C(C)N2CCCN(Cc3ccccc3)CC2)cc1 (stereo not drawn)
pIC50: 3.93

Query block: Fill in the blank: the reported pIC50 of Fc1ccc(-n2cc(CCCCN3CCC4(CC3)OCc3ccccc34)c3ccccc32)cc1 [Siramesine, reference compound] is ____.
Result block: 5.70
